System: PPARg:RXRa (NR concentration 180 nM, RXRa partner concentration 90 nM)
Assay: PBM binding z-score (relative to random genomic background probes); higher = stronger binding; sequences stand for … in GC…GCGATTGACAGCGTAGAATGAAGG
Assign y to entries whose PBM binding z-score meets or exceeds 1; assign n to the rest.

# biopolymer sequence, class
records = [
    ("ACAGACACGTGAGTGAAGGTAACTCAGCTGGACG", "n"),
    ("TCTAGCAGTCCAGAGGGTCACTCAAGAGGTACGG", "n"),
    ("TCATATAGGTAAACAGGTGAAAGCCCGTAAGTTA", "y"),
    ("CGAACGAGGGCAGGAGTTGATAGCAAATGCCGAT", "y"),
    ("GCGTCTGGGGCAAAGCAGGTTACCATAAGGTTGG", "n"),
    ("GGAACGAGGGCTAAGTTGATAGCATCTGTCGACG", "y"),
    ("CGTCCAAGGTCAGCAGGCCAGTGAAAGCGACGTG", "y"),
    ("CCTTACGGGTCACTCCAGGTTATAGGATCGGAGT", "y"),
]
